PROPERTY LABEL: melting point

Worked cases, answers included:
CCCCCCCCCCCCCCCNC(=O)OCCOCCOC(=O)N(Cc1ccccn1)C(=O)OCC :: 52 to 53 °C
CC(=O)c1c(O)cccc1OCC(F)COc1cccc(O)c1C(C)=O :: 162 to 165 °C
COC(=O)CCn1cc(Cc2cccnc2)c2cc([N+](=O)[O-])ccc21 :: 101 to 102 °C
COc1ccc(C(=O)C=Cc2cccc(N(C)C)c2)c(OC)c1OC :: 87.2 to 87.9 °C
Cc1nc(C(C)(O)c2ccsc2)sc1CCO (centres undefined) :: 127 to 129 °C
COC(=O)c1nc(-c2ccc(Cl)c(OC)c2F)nc(O)c1Br :: 192 to 195 °C

Problem: Could you tell me which melting point is on file for CN(C)C=Cc1ncc([N+](=O)[O-])n1CCc1ccncc1 ?
Result: 190 to 191 °C

Problem: Can you share its melting point? I mean this molecule: CC1=NC(NC(=O)Nc2cccc(C)c2)C(=O)N(CC(=O)N2CC3CCC(CC3)C2)c2c(C)cccc21 (centres undefined)
Result: 177 to 179 °C

Problem: So what's the measured melting point for this one? Clc1cc2c(cc1Cl)OCCO2
Result: 147 to 148 °C

Problem: Would you mind telling me what melting point value was observed for N#Cc1ccc(Cn2cc(C=C3C(=O)NC(=O)NC3=O)c3ccccc32)cc1 ?
Result: > 300 °C

Reference source: a melting point compilation (Tetko et al.; mined from patent text by program, amines drawn as free bases though some values may be those of a salt)
